Tested on: MS2 coat protein
Run description: apparent KD of MS2 coat protein; designed switch direction (-1 OFF switch, 1 ON switch): -1; higher = weaker reporter binding
Measurement parameters: input ligand: FMN 200 uM
Measured endpoint: apparent KD of MS2 coat protein (µM)
Express the result in µM but write the number alone.

IN: What value of apparent KD of MS2 coat protein has been recorded for this entry: AGAGUGCUGCGAGGAUAUACAUGAGGAUCACCCAUGUGGUCCUGUGAGGGAAAACCUCACAGGAUGUAGAAGGCGCAGUACUCA [Mat - Exclusion NG 2 - Mod of JL - D47] (Eterna round: R96, puzzle: Exclusion NG 2)
OUT: 0.0532

IN: What value of apparent KD of MS2 coat protein has been recorded for this entry: UACAUGAGGAUCACCCAUGUUUUGUCGUGUAUGGUAUUUAUCUAGGAUAUCAAAUUAUUUAUUUAUGAGAAGGAGAAUAUUAAU [JMF's solution 9] (Eterna round: R96, puzzle: Exclusion NG 3)
OUT: 0.0379

IN: What value of apparent KD of MS2 coat protein has been recorded for this entry: AAAUUAGCAAGUAGGUCCGACAUGAGGAUCACCCAUGUUAUCUGAAAUAACGCAGCAUGAUUGUGAGCUCGUCUUAG [Sensor-V1 #6] (Eterna round: R97, puzzle: Sensor, turn-off variant 1)
OUT: 0.0808

IN: What value of apparent KD of MS2 coat protein has been recorded for this entry: UUCAUGUUAGGAUAUUCCGCCACAGAGAAAGACUGUGGAAUGAAGAAGGGACAUGAGGAUCACCCAUGUUCCAA [EX4 A.5] (Eterna round: R97, puzzle: Exclusion 4)
OUT: 0.0142

IN: What value of apparent KD of MS2 coat protein has been recorded for this entry: GGUCAGCUAGGAUAUACAUGAGGAUCACCCAUGUACUGACCCAUGCGGGAGCCUGCAUGUAGAAGGAGCAAUAU [Onzatiqula] (Eterna round: R97, puzzle: Exclusion 3)
OUT: 0.037

IN: What value of apparent KD of MS2 coat protein has been recorded for this entry: AUUGUUUGAUACCUCUAAUACAUGAGGAUCACCCAUGUUAUCGAGGAUAUGCAGUAGAGUGGAGAGCAGAAGGCGAAGUAAGUG [JR_ExcNG3_Sub028] (Eterna round: R96, puzzle: Exclusion NG 3)
OUT: 0.027
